- assayProtocol: Cytotoxicity against african green monkey Vero cells
- Assay type: cell-based
- experimentalConditions: chlorocebus sabaeus, Vero cells
parameterMeasured: CC50 (µM)
Answer with a number only, understood to be in µM.

// CC50 value for "CCCCCCCC/C=C\CCCCCCCC(=O)Nc1nc(N)nc2c1ncn2[C@H]1CO[C@@H](CO)O1" : 19

###

- Tested on: CCRF-CEM
- assayProtocol: Cytotoxicity against human CEM cell
- Assay type: functional
# Lookup of reported CC50 keyed by entry
Answer with a number only, understood to be in µM.

{"chemSmiles": "CCCCCCCC/C=C\\CCCCCCCC(=O)Nc1nc(N)nc2c1ncn2[C@H]1CO[C@@H](CO)O1", "CC50 [µM]": 13}

// CC50 value for "CCCCCCCCCCCC(=O)Nc1nc(N)nc2c1ncn2[C@H]1CO[C@@H](CO)O1" : 13

// CC50 value for "Cc1cn([C@H]2C[C@H](N=[N+]=[N-])[C@@H](CO)O2)c(=O)[nH]c1=O" : 14

// CC50 value for "CCCCCCCCCCCCCC(=O)Nc1nc(N)nc2c1ncn2[C@H]1CO[C@@H](CO)O1" : 4.6

// CC50 value for "CCCCCCCCCC(=O)Nc1nc(N)nc2c1ncn2[C@H]1CO[C@@H](CO)O1" : 65

###

- Tested on: Human immunodeficiency virus 1
- assayProtocol: Antiviral activity against HIV1
- Format: functional, organism-based
Label yes (1) when EC90 is strictly below 20 µM; otherwise label no (0).

{"chemSmiles": "CCCC(=O)Nc1nc(N)nc2c1ncn2[C@H]1CO[C@@H](CO)O1", "className": "no (0)"}

Enquiry: Find out if reported EC90 for "Cc1cn([C@H]2C[C@H](N=[N+]=[N-])[C@@H](CO)O2)c(=O)[nH]c1=O" is less than 20 µM
Return: yes (1)

Enquiry: Find out if reported EC90 for "CCCCCCCC(=O)Nc1nc(N)nc2c1ncn2[C@H]1CO[C@@H](CO)O1" is less than 20 µM
Return: no (0)

###

# Lookup of reported log10(EC90) keyed by entry
- Tested on: Human immunodeficiency virus 1
- assayProtocol: Antiviral activity against HIV1
- Format: functional, organism-based
Heads up, the numbers here are log10 of EC90 in µM units.

{"molecule": "CCCCCCCCCCCCCC(=O)Nc1nc(N)nc2c1ncn2[C@H]1CO[C@@H](CO)O1", "log10(EC90)": 1.43}
{"molecule": "CCCCCCCC/C=C\\CCCCCCCC(=O)Nc1nc(N)nc2c1ncn2[C@H]1CO[C@@H](CO)O1", "log10(EC90)": 1.11}
{"molecule": "CCCCCCCCCC(=O)Nc1nc(N)nc2c1ncn2[C@H]1CO[C@@H](CO)O1", "log10(EC90)": 1.81}
{"molecule": "CCCCCCCCCCCC(=O)Nc1nc(N)nc2c1ncn2[C@H]1CO[C@@H](CO)O1", "log10(EC90)": 1.26}
{"molecule": "Nc1nc(N)c2ncn([C@H]3CO[C@@H](CO)O3)c2n1 [AMDOXOVIR]", "log10(EC90)": 0.88}

// log10(EC90) value for "CCCCCCCCCCCCCCCC(=O)Nc1nc(N)nc2c1ncn2[C@H]1CO[C@@H](CO)O1" : 0.78

// log10(EC90) value for "CC(=O)Nc1nc(N)nc2c1ncn2[C@H]1CO[C@@H](CO)O1" : 1.08
